Test system: MIA PaCa-2 cells
Experiment: Growth inhibition activity on KRAS-G12C mutant cell line (CellTiter-Glo 3D)
Assay type: cell-based, human
Conditions: Homo sapiens, MIA PaCa-2, 72 h, MIA PaCa-2, 3-day culture with compound; Table 3-1
Decision: IC50 beneath 20 nM gives True; IC50 meeting or exceeding 20 nM gives False.

Molecule	Label
CCNC/C=C/C(=O)Nc1c(F)cc(C(=O)c2cc3c4c(cccn24)-c2c(C(F)(F)F)cc4c(ncn4C)c2N(C)CC3)cc1F [Example 111]	True
CO[C@H]1CC[C@H](NC/C=C/C(=O)Nc2c(F)cc(C(=O)c3cc4c5c(cccn35)-c3c(C(F)(F)F)cc5c(nc(C)n5C)c3N(C)CC4)cc2F)CC1 (single isomer, unassigned) [Example 63]	True
Cn1cnc2c3c(c(C(F)(F)F)cc21)-c1cccn2c(C(=O)c4cc(F)c(NC(=O)/C=C/CN5CCC[C@@](C)(O)C5)c(F)c4)cc(c12)CCO3 [Example 195]	True
Cn1cnc2c3c(c(C(F)(F)F)cc21)-c1cccn2c(C(=O)c4cc(F)c(NC(=O)/C=C/CN5C[C@@H]6COC[C@H]6C5)c(F)c4)cc(c12)CCO3 (racemic) [Example 248]	False
Cc1nc2c3c(c(C(F)(F)F)cc2n1C)-c1cccc2c(C(=O)c4cc(F)c(NC(=O)/C=C/CNC5(C)COC5)c(F)c4)cn(c12)CC(=O)N3C [Example 77]	False

====

Target: interaction between GMPPNP-bound recombinant K-Ras4B G12C mutant protein and cRAF RAS-binding domain (cRAF-RBD) (Homo sapiens, UniProt P01116, G12C)
Construct: His-tag (N)
Sequence (P01116 with tags, fused parts or gaps isoform P01116-2 G12C): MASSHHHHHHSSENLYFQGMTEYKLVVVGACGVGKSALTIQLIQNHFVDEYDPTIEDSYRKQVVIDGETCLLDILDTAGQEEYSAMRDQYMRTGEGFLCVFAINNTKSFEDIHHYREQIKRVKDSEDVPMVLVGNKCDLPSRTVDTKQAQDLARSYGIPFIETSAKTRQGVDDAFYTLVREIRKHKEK
Test: Inhibitory activity on interaction between KRAS G12C and cRAF (Alpha technology)
Conditions: IC50, GMPPNP-bound KRAS G12C incubated with compound 25° C. 1 hour; Table 2-1
pIC50: −log10 of the molar value.
Measured pIC50, listed per entry for reference.
Assay Endpoint: pIC50

Compound	Value Reported
Cc1cc2c(nc(C)n2C)c2c1-c1cccc3c(C(=O)c4cc(F)c(NC(=O)/C=C/CN5[C@@H]6CC[C@H]5[C@@H](O)C6)c(F)c4)cn(c13)CCN2C (racemic) [Example 142]	7.55
CO[C@H]1CC[C@H](NC/C=C/C(=O)Nc2c(F)cc(C(=O)c3cn4c5c(cccc35)-c3c(C)cc5c(nc(C)n5C)c3N(C(C)=O)CC4)cc2F)CC1 [Example 72]	7.01
CO[C@H]1CC[C@H](NC/C=C/C(=O)Nc2c(F)cc(C(=O)c3cn4c5c(cccc35)-c3c(C)cc5c(nc(C)n5C)c3N(C)CC4)cc2F)CC1 (single isomer, unassigned) [Example 62]	7.76
Cc1cc2c(nc(C)n2C)c2c1-c1cccc3c(C(=O)c4cc(F)c(NC(=O)/C=C/CNC5COC(C)(C)C5)c(F)c4)cn(c13)CCN2C (stereo not shown) [Example 124]	7.89
Cc1cc2c(nc(C)n2C)c2c1-c1cccc3c(C(=O)c4cc(F)c(NC(=O)/C=C/CN5CC[C@H]5CO)c(F)c4)cn(c13)CCN2C [Example 132]	7.97
Cc1cc2c(nc(C)n2C)c2c1-c1cccc3c(C(=O)c4cc(F)c(NC(=O)/C=C/CNC5CC6(COC6)C5)c(F)c4)cn(c13)CCN2C [Example 84]	7.40
Cc1cc2c(nc(C)n2C)c2c1-c1cccc3c(C(=O)c4cc(F)c(NC(=O)/C=C/CN5CCC[C@H]5CO)c(F)c4)cn(c13)CCN2C [Example 114]	7.21
Cn1cnc2c3c(c(C(F)(F)F)cc21)-c1cccc2c(C(=O)c4cc(F)c(NC(=O)/C=C/CNC5(C)COC5)c(F)c4)cn(c12)CCO3 [Example 80]	7.55
Cc1cc2c(nc(C)n2C)c2c1-c1cccc3c(C(=O)c4cc(F)c(NC(=O)/C=C/CNC5(C)COC5)c(F)c4)cn(c13)CCN2C (single isomer, unassigned) [Example 65]	7.16
Cc1nc2c3c(c(C(F)(F)F)cc2n1C)-c1cccc2c(C(=O)c4cc(F)c(NC(=O)/C=C/CNC5(C)COC5)c(F)c4)cn(c12)CCO3 [Example 91]	7.57
Cc1cc2c(nc(C)n2C)c2c1-c1cccc3c(C(=O)c4cc(F)c(NC(=O)/C=C/CN5CCC[C@H]5C(C)(C)O)c(F)c4)cn(c13)CCN2C [Example 122]	7.27
Cc1cc2c(nc(C)n2C)c2c1-c1cccc3c(C(=O)c4cc(F)c(NC(=O)/C=C/CN5CC[C@H]5C(C)(C)O)c(F)c4)cn(c13)CCN2C [Example 139]	7.23
COCc1nc2c3c(c(C(F)(F)F)cc2n1C)-c1cccc2c(C(=O)c4cc(F)c(NC(=O)/C=C/CNC5(C)COC5)c(F)c4)cn(c12)CCN3C (single isomer, unassigned) [Example 97]	7.52
Cc1cc2c(nc(C)n2C)c2c1-c1cccc3c(C(=O)c4cc(F)c(NC(=O)/C=C/CN[C@H]5CCOC5)c(F)c4)cn(c13)CCN2C (single isomer, unassigned) [Example 90]	7.76
CO[C@H]1CC[C@H](NC/C=C/C(=O)Nc2c(F)cc(C(=O)c3cn4c5c(cccc35)-c3c(C(F)(F)F)cc5c(nc(C)n5C)c3N(C)CC4)cc2F)CC1 (single isomer, unassigned) [Example 55]	7.93
CC(=O)C(C)(C)NC/C=C/C(=O)Nc1c(F)cc(C(=O)c2cn3c4c(cccc24)-c2c(C)cc4c(nc(C)n4C)c2N(C)CC3)cc1F [Example 85]	7.22
Cc1cc2c(nc(C)n2C)c2c1-c1cccc3c(C(=O)c4cc(F)c(NC(=O)/C=C/CN[C@H]5C[C@H]6CC[C@@H]5O6)c(F)c4)cn(c13)CCN2C [Example 136]	7.58
Cc1nc2c3c(c(C(F)(F)F)cc2n1C)-c1cccc2c(C(=O)c4cc(F)c(NC(=O)/C=C/CNC5(C)COC5)c(F)c4)cn(c12)CCN3C (single isomer, unassigned) [Example 54]	7.66
Cc1nc2c3c(c(C(F)(F)F)cc2n1C)-c1cccc2c(C(=O)c4cc(F)c(NC(=O)/C=C/CNC5(C)COC5)c(F)c4)cn(c12)CC(=O)N3C [Example 77]	7.09

====

System: MIA PaCa-2 cells
Test: Growth inhibition activity on KRAS-G12C mutant cell line (CellTiter-Glo 3D)
Type: cell-based, human
Details: Homo sapiens, MIA PaCa-2, 72 h, MIA PaCa-2, 3-day culture with compound; Table 3-1
pIC50: −log10 of the molar value.
Is pIC50 at least 8? Then 1. If not, -1.

Compound	Label
Cc1cc2c(C)n(C)nc2c2c1-c1cccn3c(C(=O)c4cc(F)c(NC(=O)/C=C/CNC5(C)COC5)c(F)c4)cc(c13)CCN2C (single isomer, unassigned) [Example 145]	-1
Cn1cnc2c3c(c(C(F)(F)F)cc21)-c1cccn2c(C(=O)c4cc(F)c(NC(=O)/C=C/CN5CCC[C@](C)(O)C5)c(F)c4)cc(c12)CCO3 [Example 196]	-1
CN1CCc2cc(C(=O)c3cc(F)c(NC(=O)/C=C/CN[C@@H]4CCCC[C@H]4O)c(F)c3)n3cccc(c23)-c2c(C(F)(F)F)cc3c(ncn3C)c21 [Example 100]	-1
Cn1cnc2c3c(c(C(F)(F)F)cc21)-c1cccn2c(C(=O)c4cc(F)c(NC(=O)/C=C/CN5CC[C@H]5CO)c(F)c4)cc(c12)CCO3 [Example 165]	1
Cc1c2cc(C(F)(F)F)c3c(c2nn1C)N(C)CCc1nc(C(=O)c2cc(F)c(NC(=O)/C=C/CN[C@H]4CCOC4)c(F)c2)n2cccc-3c12 (single isomer, unassigned) [Example 176]	-1
COCCn1cnc2c3c(c(C(F)(F)F)cc21)-c1cccn2c(C(=O)c4cc(F)c(NC(=O)C=CCNC5(C)CC5)c(F)c4)cc(c12)CCN3C [Example 215]	1
Cc1cc2c(nc(C)n2C)c2c1-c1cccn3c(C(=O)c4cc(F)c(NC(=O)/C=C/CNC5(C)CCOCC5)c(F)c4)cc(c13)CCN2C [Example 57]	-1
Cc1nc2c3c(c(C(F)(F)F)cc2n1C)-c1cccc2c(C(=O)c4cc(F)c(NC(=O)/C=C/CN[C@H]5CCOC5)c(F)c4)cn(c12)CCN3C (single isomer, unassigned) [Example 87]	1
CN1CCc2cc(C(=O)c3cc(F)c(NC(=O)/C=C/CNC4(C)CC4)c(F)c3)n3cccc(c23)-c2c(C(F)(F)F)cc3c(ncn3C)c21 [Example 214]	1
Cn1cnc2c3c(c(C(F)(F)F)cc21)-c1cccn2c(C(=O)c4cc(F)c(NC(=O)/C=C/CN5CC[C@H]6CC[C@H](O)[C@H]65)c(F)c4)cc(c12)CCO3 (racemic) [Example 163]	-1
CN1CCc2cc(C(=O)c3cc(F)c(NC(=O)/C=C/CN[C@@H]4CCOC4)c(F)c3)n3cccc(c23)-c2c(C(F)(F)F)cc3c(ncn3C)c21 (single isomer, unassigned) [Example 89]	1
Cn1cnc2c3c(c(C(F)(F)F)cc21)-c1cccn2c(C(=O)c4cc(F)c(NC(=O)/C=C/CN5C6COCC5C6)c(F)c4)cc(c12)CCO3 [Example 212]	1
Cc1c2cc(C(F)(F)F)c3c(c2nn1C)N(C)CCc1cc(C(=O)c2cc(F)c(NC(=O)/C=C/CNC4(C)COC4)c(F)c2)n2cccc-3c12 [Example 146]	-1
COCc1nc2c3c(c(C(F)(F)F)cc2n1C)-c1cccn2c(C(=O)c4cc(F)c(NC(=O)/C=C/CNC5(C)CC5)c(F)c4)nc(c12)CCN3C [Example 185]	-1

Data origin, for the record: patent US20240262842A1
